All figures here come from ChEMBL document CHEMBL4364323.

ASSAY_OVERVIEW: Selectivity index, ratio of CC50 for African green monkey Vero cells to MIC for Mycobacterium tuberculosis H37Rv
Assay type: toxicity
ASSAY_CONTEXT: read-out: Selectivity Index
READOUT_TYPE: selectivity ratio

>>> df
                              sample_smiles       readout_type  recorded_value
0  COc1c(N2C[C@H]3CCCN(C(=O)Cn4cc(CN5C(=O)C(=O)c6ccccc65)nn4)[C@H]3C2)c(F)cc2c(=O)c(C(=O)O)cn(C3CC3)c12  selectivity ratio             128
1  COc1c(N2C[C@H]3CCCN(C(=O)Cn4cc(CN5C(=O)C(=O)c6cccc(F)c65)nn4)[C@H]3C2)c(F)cc2c(=O)c(C(=O)O)cn(C3CC3)c12  selectivity ratio               4
2  CO/N=C1/C(=O)N(Cc2cn(CC(=O)N3CCC[C@@H]4CN(c5c(F)cc6c(=O)c(C(=O)O)cn(C7CC7)c6c5OC)C[C@@H]43)nn2)c2ccc(C)cc21  selectivity ratio              16
3  COc1c(N2C[C@H]3CCCN(C(=O)Cn4cc(CN5C(=O)/C(=N/O)c6ccccc65)nn4)[C@H]3C2)c(F)cc2c(=O)c(C(=O)O)cn(C3CC3)c12  selectivity ratio              32
4  COc1c(N2C[C@H]3CCCN(C(=O)Cn4cc(CN5C(=O)/C(=N/NC(N)=S)c6cc(F)ccc65)nn4)[C@H]3C2)c(F)cc2c(=O)c(C(=O)O)cn(C3CC3)c12  selectivity ratio              32
5  CO/N=C1/C(=O)N(Cc2cn(CC(=O)N3CCC[C@@H]4CN(c5c(F)cc6c(=O)c(C(=O)O)cn(C7CC7)c6c5OC)C[C@@H]43)nn2)c2ccccc21  selectivity ratio             256
6  COc1c(N2C[C@H]3CCCN(C(=O)Cn4cc(CN5C(=O)C(=O)c6cc(F)ccc65)nn4)[C@H]3C2)c(F)cc2c(=O)c(C(=O)O)cn(C3CC3)c12  selectivity ratio              16
